Assign IC50 to each entry below.
Test system: 362531-283-R-J2-PDC complex spheroid viability;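 note: spheroids exposed to the agents for 7 days before readout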
PROTOCOL_SUMMARY: Anticancer human tumor 362531-283-R-J2-PDC patient-derived colon adenocarcinoma cell line growth inhibition [RAS]
COND: curve of first compound; second compound 0.0949 µM
From the text: RAS pathway inhibitors in Combinations in Complex Spheroids A high-throughput screen of multi-cell type tumor spheroids was designed to identify active combinations of RAS pathway inhibitors and targeted small molecules. Complex spheroids include a stromal component modeled by human endothelial cells (HUVEC) and fibroblasts modeled by human mesenchymal stem cells (MSCs). […] Compounds. […] If the clinical Cmax for an agent had not been determined, the highest concentration tested was 10 microM. […]
One number for each entry, in nM.

Examples with answers:
[
  {
    "COMPOUND": "CC(C)n1nc(-c2ccc3oc(N)nc3c2)c2c(N)ncnc21 + CCn1c(-c2cccnc2C(C)OC)c2c3cc(ccc31)N1CCOC(CC(NC(=O)C(C(C)C)N(C)C(=O)C3(F)CCN(C(=O)C#CC(C)(C)N(C)C)CC3)C(=O)N3CCCC(N3)C(=O)OCC(C)(C)C2)C1",
    "UNIT_OF_MEASURE": "nM",
    "VALUE_OBSERVED": 73.3
  },
  {
    "COMPOUND": "CC(=O)OC12COC1CC(O)C1(C)C(=O)C(O)C3=C(C)C(OC(=O)C(O)C(NC(=O)OC(C)(C)C)c4ccccc4)CC(O)(C(OC(=O)c4ccccc4)C21)C3(C)C (centres undefined) + CCn1c(-c2cccnc2C(C)OC)c2c3cc(ccc31)N1CCOC(CC(NC(=O)C(C(C)C)N(C)C(=O)C3(F)CCN(C(=O)C#CC(C)(C)N(C)C)CC3)C(=O)N3CCCC(N3)C(=O)OCC(C)(C)C2)C1",
    "UNIT_OF_MEASURE": "nM",
    "VALUE_OBSERVED": 234
  }
]

// switching to the query compound
IC50 of CCC(CC)c1cc(NC2CCC(N)C2)n2nccc2n1 (centres undefined) + CCn1c(-c2cccnc2C(C)OC)c2c3cc(ccc31)N1CCOC(CC(NC(=O)C(C(C)C)N(C)C(=O)C3(F)CCN(C(=O)C#CC(C)(C)N(C)C)CC3)C(=O)N3CCCC(N3)C(=O)OCC(C)(C)C2)C1 , assay on 362531-283-R-J2-PDC complex spheroid viability, is 4680
